Parameter: EC50. Scope: all listed entries.
tested system: human M1 receptor (hCHRM1) (Homo sapiens, UniProt P11229)
Sequence (P11229 whole entry): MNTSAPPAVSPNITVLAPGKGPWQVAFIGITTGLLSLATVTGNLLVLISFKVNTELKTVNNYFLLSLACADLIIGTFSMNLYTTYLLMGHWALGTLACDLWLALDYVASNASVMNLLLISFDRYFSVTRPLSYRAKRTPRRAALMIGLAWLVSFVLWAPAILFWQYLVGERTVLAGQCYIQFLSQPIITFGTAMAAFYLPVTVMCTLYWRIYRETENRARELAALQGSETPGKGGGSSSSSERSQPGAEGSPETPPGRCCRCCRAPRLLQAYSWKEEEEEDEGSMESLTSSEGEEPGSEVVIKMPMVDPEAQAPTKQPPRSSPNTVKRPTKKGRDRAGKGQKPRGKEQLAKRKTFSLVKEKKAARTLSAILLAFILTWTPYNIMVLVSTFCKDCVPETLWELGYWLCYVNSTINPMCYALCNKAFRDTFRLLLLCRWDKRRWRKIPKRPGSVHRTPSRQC
test summary: Measurement of M1 receptor positive allosteric modulator (M1PAM) activity (calcium fluorescence, Fluo-4, FDSS)
experimental parameters: inflection point of concentration-dependent curve; CHO-K1 cells stably expressing hCHRM1; in presence of acetylcholine at EC20 concentration (final 0.8 nM); read-out: IP value
Just the number please, in nM, no unit attached.

>  <molecule>
Cc1c(Cc2ccc(-n3cccn3)cc2)cc2c(=O)n([C@H]3CCOC[C@@H]3O)cnc2c1C [Example 55]

>  <quantity unit>
nM

>  <EC50>
7.4

$$$$
>  <molecule>
Cc1c(Cc2ccc(-c3cnn(C)c3)cc2)cc2c(=O)n([C@H]3CCC[C@@H]3O)cnc2c1C (relative stereo) [Example 17]

>  <quantity unit>
nM

>  <EC50>
55

$$$$
>  <molecule>
Cc1c(Cc2ccc(-c3cnn(C)c3)nc2)cc2c(=O)n([C@H]3CCC[C@@H]3O)cnc2c1C (single isomer, unassigned) [Example 51]

>  <quantity unit>
nM

>  <EC50>
79

$$$$

# evaluate next
Q: Entry COc1cc(Cc2ccc(-c3cnn(C)c3)cc2)cc2c(=O)n([C@H]3CCC[C@@H]3O)cnc12 (relative stereo) [Example 20] has what EC50?
A: 61

From: patent US10548899B2
